Target: T1, cynomolgus monkey CCL21 (cynomolgus monkey, UniProt Q8HYP5 24-131 (rhesus entry))
T1 sequence: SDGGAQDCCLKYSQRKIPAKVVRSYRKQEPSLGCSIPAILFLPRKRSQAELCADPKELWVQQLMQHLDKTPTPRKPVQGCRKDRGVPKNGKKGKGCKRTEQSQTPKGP
Assay: cell-based or functional assay
property measured: % inhibition of migration, recombinant cCCL21, H9 cells, IgG at 2uM (3rd cell) (%)
// note: answer is a bare numeric in %

Query: Give reported % inhibition of migration, recombinant cCCL21, H9 cells, IgG at 2uM (3rd cell) value for MOR08378_g5-51_g2a2 (antibody, human IgG1, lambda, V domains shown) VH: EVQLVQSGAEVKKPGESLKISCKGSGYSFNNYWISWVRQMPGKGLEWMGIIDPTNSQTTYSPSFQGQVTISADKSISTAYLQWSSLKASDTAMYYCARDGYPIFDYWGQGTLVTVSS VL: QSALTQPASVSGSPGQSITISCTGTSSDLGGYNYVSWYQQHPGKAPKLMIYDVNYRPSGVSNRFSGSKSGNTASLTISGLQAEDEADYYCSSYTYYSNSGVFGGGTKLTVLG
Reply: 100

Values compiled from patent WO2011080050A2.
